- Test system: lipase
- Protocol Details: Lipase/lipolysis assay (EnzChek Lipase Substrate, quenched BODIPY-fatty acid conjugate) on stored human milk; also: test concentration or dose not given here
Property Label: Lipase (RFU)
Just the number please, in RFU, no unit attached.

// known answers, use as guide
[[record]]
compound = "Oc1cc(O)c2ccc(-c3ccc(O)c(O)c3)[o+]c2c1.[Cl-] [Luteolinidin (chloride)]"
units_of_measure = "RFU"
recorded_number = 933.7809

[[record]]
compound = "C[C@@H]1O[C@@H](OC[C@H]2O[C@@H](Oc3c(-c4ccc(O)cc4)oc4cc(O)cc(O)c4c3=O)[C@H](O)[C@@H](O)[C@H]2O)[C@H](O)[C@H](O)[C@H]1O"
units_of_measure = "RFU"
recorded_number = 791.185

[[record]]
compound = "C[C@H](CCC(=O)O)[C@H]1CC[C@H]2[C@@H]3CC[C@@H]4CC(O)CC[C@]4(C)[C@H]3CC(=O)[C@]12C (stereo partly shown)"
units_of_measure = "RFU"
recorded_number = 778.2255

[[record]]
compound = "C[n+]1cccc(C(N)=O)c1"
units_of_measure = "RFU"
recorded_number = 1140.39

[[record]]
compound = "CC1CCC(C(C)C)C(O)C1 (racemic)"
units_of_measure = "RFU"
recorded_number = 1275.242


For the compound shown here, O=C1c2ccc(O)cc2OCC1c1ccc(O)cc1 (stereo not shown) [Dihydrodaidzein] , give the reported Lipase (RFU).
682.5875

====

- Tested on: lipase
- Protocol Details: Lipase/lipolysis assay (EnzChek Lipase Substrate, quenched BODIPY-fatty acid conjugate) on stored human milk; also: test concentration or dose not given here
Recorded Lipase (RFU) for the following molecules
Just the number please, in RFU, no unit attached.

// known answers, use as guide
[[record]]
molecule = "N[C@@H](CS(=O)O)C(=O)O [L-Cysteinesulfinic acid]"
test_system = "lipase"
units_of_measure = "RFU"
recorded_number = 867.5137

[[record]]
molecule = "COc1cc(C[C@H](C)[C@H](C)Cc2ccc3c(c2)OCO3)ccc1O [Macelignan]"
test_system = "lipase"
units_of_measure = "RFU"
recorded_number = 621.9317

[[record]]
molecule = "O=c1[nH]c(=O)c2[nH]c(=O)[nH]c2[nH]1.[Na] [Uric acid (sodium)]"
test_system = "lipase"
units_of_measure = "RFU"
recorded_number = 855.3809

[[record]]
molecule = "CCCCCCCCCCCCCCCCCCCCCC(=O)O[C@H]1CC[C@@]2(C)C(=CC[C@H]3[C@@H]4CC[C@H]([C@H](C)CCCC(C)C)[C@@]4(C)CC[C@@H]32)C1 [Cholesteryl behenate]"
test_system = "lipase"
units_of_measure = "RFU"
recorded_number = 935.1979

[[record]]
molecule = "OCCc1c[nH]c2ccc(O)cc12 [5-Hydroxytryptophol]"
test_system = "lipase"
units_of_measure = "RFU"
recorded_number = 681.6533


For the molecule shown here, O=C(C=Cc1ccc(O)c(O)c1)OC1CC(O)(C(=O)O)CC(O)C1OC(=O)C=Cc1ccc(O)c(O)c1 (stereo not drawn) [4,5-Dicaffeoylquinic acid] , give the reported Lipase (RFU).
1065.884

For the molecule shown here, O=C(CO)[C@@H](O)[C@H](O)[C@@H](O)C(=O)O [5-Keto-D-Gluconic Acid] , give the reported Lipase (RFU).
922.1469

For the molecule shown here, N=C(N)NCCC[C@@H](N)C(=O)O [D-Arginine] , give the reported Lipase (RFU).
1215.288

For the molecule shown here, COc1ccc2[nH]cc(CCO)c2c1 [5-Methoxytryptophol] , give the reported Lipase (RFU).
1031.531

====

Recorded Lipase (RFU) for the following molecules
- Tested on: lipase
- Protocol Details: Lipase/lipolysis assay (EnzChek Lipase Substrate, quenched BODIPY-fatty acid conjugate) on stored human milk; also: test concentration or dose not given here
Just the number please, in RFU, no unit attached.

// known answers, use as guide
[[record]]
molecule = "O=C(/C=C/c1ccc(O)cc1)c1ccc(O[C@@H]2O[C@H](CO)[C@@H](O)[C@H](O)[C@H]2O)cc1O"
units_of_measure = "RFU"
recorded_number = 789.3461

[[record]]
molecule = "COc1cc(O)c2c(=O)c(-c3ccc(O)cc3)coc2c1"
units_of_measure = "RFU"
recorded_number = 865.5495

[[record]]
molecule = "CCCCCCCCCCCCCCCCCC(=O)O[C@H](CC(=O)[O-])C[N+](C)(C)C"
units_of_measure = "RFU"
recorded_number = 900.7392

[[record]]
molecule = "CC(C)=CCC[C@](C)(O)[C@H]1CC[C@]2(C)[C@@H]1[C@H](O)C[C@@H]1[C@@]3(C)CC[C@H](O[C@@H]4O[C@H](CO)[C@@H](O)[C@H](O)[C@H]4O[C@@H]4O[C@H](CO)[C@@H](O)[C@H](O)[C@H]4O)C(C)(C)[C@@H]3CC[C@]12C [20(S)-Ginsenoside Rg3]"
units_of_measure = "RFU"
recorded_number = 979.4673

[[record]]
molecule = "OC[C@H]1OC(O)[C@H](O)[C@@H](O)[C@@H]1O (stereo partly shown)"
units_of_measure = "RFU"
recorded_number = 992.2563

[[record]]
molecule = "Cc1cc(O)c2c(c1)C(=O)c1cc(O)cc(O[C@@H]3O[C@H](CO)[C@@H](O)[C@H](O)[C@H]3O)c1C2=O [Emodin-1-O-β-D-glucopyranoside]"
units_of_measure = "RFU"
recorded_number = 964.8621


Now examine the next entry.
For the molecule shown here, CCCCCCC[C@H](O)CC(=O)CCc1ccc(O)c(OC)c1 , give the reported Lipase (RFU).
724.4815

====

- System: lipase
- Protocol Details: Lipase/lipolysis assay (EnzChek Lipase Substrate, quenched BODIPY-fatty acid conjugate) on stored human milk; also: test concentration or dose not given here
Property Label: Lipase (RFU)
Just the number please, in RFU, no unit attached.

// known answers, use as guide
[[record]]
molecule = "NCCOP(=O)(O)O"
recorded_number = 1247.866

[[record]]
molecule = "O=C(O)c1cc(O)c2c(c1)[C@H]([C@H]1c3cc(C(=O)O)cc(O)c3C(=O)c3c(O[C@@H]4O[C@H](CO)[C@@H](O)[C@H](O)[C@H]4O)cccc31)c1cccc(O[C@@H]3O[C@H](CO)[C@@H](O)[C@H](O)[C@H]3O)c1C2=O [Sennoside A]"
recorded_number = 1002.323

[[record]]
molecule = "O=C([O-])[C@H](O)[C@@H](O)[C@H](O)[C@H](O)CO.[Na+] [Gluconate (sodium)]"
recorded_number = 1019.914


Can you look up Lipase (RFU) on lipase for CC1(C)S[C@@H]2[C@H](NC(=O)[C@H](N)c3ccccc3)C(=O)N2[C@H]1C(=O)[O-].[Na+] [Ampicillin (sodium)] ?
844.0223

Can you look up Lipase (RFU) on lipase for O=C([O-])O.[Na+] [Sodium bicarbonate] ?
751.602

====

- Test system: lipase
- Protocol Details: Lipase/lipolysis assay (EnzChek Lipase Substrate, quenched BODIPY-fatty acid conjugate) on stored human milk; also: test concentration or dose not given here
Response field label: string, one of true (Lipase (RFU) strictly below 1000 RFU) or false.

[[record]]
molecule = "Cc1nc2ccccc2o1"
test_system = "lipase"
class = "true"

[[record]]
molecule = "CC1=C2[C@H]3OC(=O)[C@@H](C)[C@@H]3CC[C@@]2(C)C=CC1=O"
test_system = "lipase"
class = "true"

[[record]]
molecule = "CCCCCC(=O)O"
test_system = "lipase"
class = "true"

[[record]]
molecule = "CC(C)=CCc1c(O)cc2oc3cc(O)c(O)c(CC=C(C)C)c3c(=O)c2c1O"
test_system = "lipase"
class = "false"

[[record]]
molecule = "COc1ccc2c(c1)OC(O)C(=O)N2O (centres unmarked)"
test_system = "lipase"
class = "true"


Determine whether this molecule shows Lipase (RFU) lower than 1000 RFU (ties excluded): CC1(C)Oc2cc3oc(-c4cc(O)cc(O)c4)cc3cc2C[C@H]1O
true

Determine whether this molecule shows Lipase (RFU) lower than 1000 RFU (ties excluded): COc1ccc(-c2cc(=O)c3c(O)cc(O[C@@H]4O[C@H](CO)[C@@H](O)[C@H](O)[C@H]4O[C@@H]4O[C@@H](C)[C@H](O)[C@@H](O)[C@H]4O)cc3o2)cc1O
true

Determine whether this molecule shows Lipase (RFU) lower than 1000 RFU (ties excluded): O=C(/C=C/c1ccc(O)c(O)c1)O[C@H]1[C@H](O)C[C@](O)(C(=O)O)C[C@H]1OC(=O)/C=C/c1ccc(O)c(O)c1
true

Determine whether this molecule shows Lipase (RFU) lower than 1000 RFU (ties excluded): COC1=CC(=O)OC(/C=C/c2ccccc2)C1 (single isomer, unassigned; (+)) [(+)-Kavain]
true

Determine whether this molecule shows Lipase (RFU) lower than 1000 RFU (ties excluded): O=C([O-])O.[K+] [Potassium bicarbonate]
true

Determine whether this molecule shows Lipase (RFU) lower than 1000 RFU (ties excluded): COc1ccc(C(=O)/C=C/c2ccc(O)cc2)c(O)c1CC=C(C)C [Compound 4-Hydroxyderricin]
true

Determine whether this molecule shows Lipase (RFU) lower than 1000 RFU (ties excluded): O=C(/C=C/c1ccc(O)c(O)c1)O[C@H](C(=O)O)[C@H](OC(=O)/C=C/c1ccc(O)c(O)c1)C(=O)O
false

Determine whether this molecule shows Lipase (RFU) lower than 1000 RFU (ties excluded): Nc1nc2nc[nH]c2c(=O)[nH]1
true

Determine whether this molecule shows Lipase (RFU) lower than 1000 RFU (ties excluded): C[C@H](CCC(=O)NCCS(=O)(=O)O)[C@H]1CC[C@H]2[C@@H]3[C@@H](O)C[C@@H]4C[C@H](O)CC[C@]4(C)[C@H]3CC[C@]12C.O.O [Tauroursodeoxycholate (dihydrate)]
false

Determine whether this molecule shows Lipase (RFU) lower than 1000 RFU (ties excluded): COC1=CC(=O)O[C@@H](/C=C/c2ccc3c(c2)OCO3)C1
false

Determine whether this molecule shows Lipase (RFU) lower than 1000 RFU (ties excluded): CC(O)CO (centres unmarked)
false

Determine whether this molecule shows Lipase (RFU) lower than 1000 RFU (ties excluded): CC(=O)[C@H]1CC[C@H]2[C@@H]3CC[C@H]4CC(=O)CC[C@]4(C)[C@H]3CC[C@]12C
false

Determine whether this molecule shows Lipase (RFU) lower than 1000 RFU (ties excluded): Nc1nc2c(ncn2[C@@H]2O[C@H](COP(=O)([O-])[O-])[C@@H](O)[C@H]2O)c(=O)[nH]1.[Na+].[Na+] [5′-Guanylic acid (disodium salt)]
true
